Please provide measured GLC for the entries that follow.
- Organism: Rattus norvegicus
- experiment: Open TG-GATES - Regimen: Daily Repeat
- Type: toxicity, organism-based, Sprague-Dawley
- Set-up: regimen Daily Repeat, gender Male, age 6 weeks
- protocol conditions: in vivo, po, 300 mg/kg, […], tissue Plasma, route gavage, dose level Middle, time 14 day
I only need the number, in mg/dL, no unit after it.

For Cc1nnc2n1-c1ccc(Cl)cc1C(c1ccccc1Cl)=NC2 the molecule record lists GLC as 182.2

Data point: CCOc1ccc(NC(C)=O)cc1 ; GLC = 181.8

Record summary for O=C(OC[C@H]1O[C@@H](OC(=O)c2cc(O)c(O)c(OC(=O)c3cc(O)c(O)c(O)c3)c2)[C@H](OC(=O)c2cc(O)c(O)c(OC(=O)c3cc(O)c(O)c(O)c3)c2)[C@@H](OC(=O)c2cc(O)c(O)c(OC(=O)c3cc(O)c(O)c(O)c3)c2)[C@@H]1OC(=O)c1cc(O)c(O)c(OC(=O)c2cc(O)c(O)c(O)c2)c1)c1cc(O)c(O)c(OC(=O)c2cc(O)c(O)c(O)c2)c1 : reported GLC = 202.4

So for COC(=O)C1=C(C)NC(C)=C(C(=O)OC)C1c1ccccc1[N+](=O)[O-] , the logged GLC turned out to be 172.6

In plain terms, CNC(=C[N+](=O)[O-])NCCSCc1ccc(CN(C)C)o1 has a documented GLC of 203.8

GLC reading for CN/C(=N/CCSCc1nc[nH]c1C)NC#N : 216.2

Ref: ChEMBL document CHEMBL3885861
